- System: MOLM1 and UCSD/AML1 (averaged)
- assay info: cell viability relative to DMSO control (POC); higher = less growth inhibition
- experimental context: 1 µM; 72 h
Out of some 2,100 compounds screened, about 180 (8.6%) showed an effect of 50% or more. For the sample, strong results were picked, then their nearest neighbours and some compounds at random.
endpoint name: cell viability (%)
Numbers only, in %.

| molecule | recorded number |
| --- | --- |
| O=C(NCO)c1cccnc1 | 106 |
| COC(=O)C[C@H]1C2(C)CC34OC5(C)O[C@@]6([C@H](OC)C(OC(=O)C(C)C)[C@]7(C)C(/C(=C(/OC)C(C)C)C(=O)O[C@H]7c7ccoc7)[C@@]6(O5)[C@H](OC)[C@@]3(OC)C2OC(C)=O)[C@]14C (stereo partly specified) | 105 |

Report cell viability for each item below.
1. C[C@H]1C(=O)CC[C@@H]2[C@]1(C)CC[C@H]1[C@@]2(C)CC[C@@]2(C)[C@@H]3CC(C)(C)CC[C@]3(C)CC[C@]12C
2. CC(=O)O[C@H]1C[C@@H](O)C(C)(C)[C@@H]2C[C@@H](OC(C)=O)[C@]3(C)[C@H](CC[C@@]4(C)[C@@H](c5ccoc5)OC(=O)[C@H]5O[C@@]534)[C@@]12C
3. COc1ccc2c(c1)O[C@@H]1COc3cc(OC)c(OC)cc3[C@@H]1C2=O
4. CO[C@H]1C[C@@H]2CC[C@@H](C)[C@@](O)(O2)C(=O)C(=O)N2CCCC[C@H]2C(=O)O[C@H]([C@H](C)C[C@@H]2CC[C@@H](O)[C@H](OC)C2)CC(=O)[C@H](C)/C=C(\C)[C@@H](O)[C@@H](OC)C(=O)[C@H](C)C[C@H](C)/C=C/C=C/C=C/1C

Result block:
1: 113; 2: 104; 3: 102; 4: 44
